- Test system: NCI-H1651
- procedure.details: relative viability (nuclei count vs DMSO), 5 days (fraction); higher = more cells survive
- condition.context: first compound 1.265 µM
metric.name: relative viability

Below are worked cases with known answers.
O=C(O)c1ccc(-c2c[nH]c3ncc(-c4ccccc4)cc23)cc1C1CCCC1 + O=C(CCCCCCC(=O)Nc1ccccc1)NO [Vorinostat] (partner 1 µM)	0.462
O=C(O)c1ccc(-c2c[nH]c3ncc(-c4ccccc4)cc23)cc1C1CCCC1 + Cc1nc(NC(=O)N2CCC[C@H]2C(N)=O)sc1-c1ccnc(C(C)(C)C(F)(F)F)c1 [Alpelisib] (partner 2 µM)	0.713
O=C(O)c1ccc(-c2c[nH]c3ncc(-c4ccccc4)cc23)cc1C1CCCC1 + O=C(c1cc(Cc2n[nH]c(=O)c3ccccc23)ccc1F)N1CCN(C(=O)C2CC2)CC1 [Olaparib] (partner 8 µM)	0.192
O=C(O)c1ccc(-c2c[nH]c3ncc(-c4ccccc4)cc23)cc1C1CCCC1 + CS(=O)(=O)CCNCc1ccc(-c2ccc3ncnc(Nc4ccc(OCc5cccc(F)c5)c(Cl)c4)c3c2)o1 [Lapatinib] (partner 2 µM)	0.472

Record request: relative viability value, item O=C(O)c1ccc(-c2c[nH]c3ncc(-c4ccccc4)cc23)cc1C1CCCC1 + Cc1cc(Nc2cc(N3CCN(C)CC3)nc(Sc3ccc(NC(=O)C4CC4)cc3)n2)n[nH]1 [Tozasertib] (partner 0.1 µM) 0.481

What relative viability value was documented for this molecule, O=C(O)c1ccc(-c2c[nH]c3ncc(-c4ccccc4)cc23)cc1C1CCCC1 + NC(=O)Nc1cc(-c2cccc(F)c2)sc1C(=O)N[C@H]1CCCNC1 [AZD7762] (partner 0.2 µM) ? 0.426

Can you share its relative viability? I mean this molecule: O=C(O)c1ccc(-c2c[nH]c3ncc(-c4ccccc4)cc23)cc1C1CCCC1 + Cc1nc(Nc2ncc(C(=O)Nc3c(C)cccc3Cl)s2)cc(N2CCN(CCO)CC2)n1 [Dasatinib] (partner 0.075 µM) 0.3

Fill in the blank: the reported relative viability of O=C(O)c1ccc(-c2c[nH]c3ncc(-c4ccccc4)cc23)cc1C1CCCC1 + CC(=O)c1c(C)c2cnc(Nc3ccc(N4CCNCC4)cn3)nc2n(C2CCCC2)c1=O [Palbociclib] (partner 0.5 µM) is ____. 0.475

Bench note: what relative viability did O=C(O)c1ccc(-c2c[nH]c3ncc(-c4ccccc4)cc23)cc1C1CCCC1 + CS(=O)(=O)N1CCN(Cc2cc3nc(-c4cccc5[nH]ncc45)nc(N4CCOCC4)c3s2)CC1 [Pictilisib] (partner 1 µM) show? 0.455

---

- Test system: 201T
- procedure.details: relative viability (nuclei count vs DMSO), 5 days (fraction); higher = more cells survive
- condition.context: first compound 0.01 µM
Quick reference for relative viability among some compounds
I'd appreciate a reply containing only the number, no unit.

NC(=O)Nc1cc(-c2cccc(F)c2)sc1C(=O)N[C@H]1CCCNC1 [AZD7762] + CC(=O)c1c(C)c2cnc(Nc3ccc(N4CCNCC4)cn3)nc2n(C2CCCC2)c1=O [Palbociclib] (partner 0.5 µM)	0.361

// lookup relative viability for NC(=O)Nc1cc(-c2cccc(F)c2)sc1C(=O)N[C@H]1CCCNC1 [AZD7762] + C[C@]1(O)C[C@@H](c2nc(-c3ccc4ccc(-c5ccccc5)nc4c3)c3c(N)nccn32)C1 [Linsitinib] (partner 1 µM) 1.04

Which value of relative viability has been reported for NC(=O)Nc1cc(-c2cccc(F)c2)sc1C(=O)N[C@H]1CCCNC1 [AZD7762] + CS(=O)(=O)N1CCN(Cc2cc3nc(-c4cccc5[nH]ncc45)nc(N4CCOCC4)c3s2)CC1 [Pictilisib] (partner 1 µM) in the records? 0.707
